- EXPERIMENTAL_PROTOCOL: chemical genetic growth profiling, strain panel (AID 1159580);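 further: tested at 20 µM; growth read once vehicle control cultures reached saturation at 30 °C; 1 = growth at the plate median or of vehicle wells; lower values mean less growth of the strain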
- REPORTED_CONDITIONS: S. cerevisiae deletion strains, growth OD, locus YFR003C, strain YPI1, active compounds read low
In all, about 5,500 compounds went through this assay and about 2,000 (36%) were called active. Another 18% or so got no clear call; they are omitted. This is one part of the list.
PARAMETER_MEASURED: normalized growth
Enter the number alone.

# compound CC(C)(C)c1ccc(C(=O)NNC(=S)Nc2ccc(Cl)cc2)cc1 ; its normalized growth = 0.98

# compound O=C(NNC(=S)Nc1ccc(Cl)cc1)c1ncc(C(F)(F)F)cc1Cl ; its normalized growth = 0.991

# compound S=C(Nc1ccc(Cl)cc1)Nc1ccc(Cl)cc1 ; its normalized growth = 0.922

# compound OC(CSc1ccccc1)CN1CCN(c2nc(-c3ccccc3)ns2)CC1 (stereo unspecified) ; its normalized growth = 0.989

# compound COc1cc(N2C(=O)C=CC2=O)cc(OC)c1OC ; its normalized growth = 0.989

# compound O=c1c(-c2ccccc2)c(O)c2cccc3c4c(n1c23)CCCC4 ; its normalized growth = 0.952

====

Please respond with reported normalized growth for every item in the list.
- EXPERIMENTAL_PROTOCOL: chemical genetic growth profiling, strain panel (AID 1159580);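 further: tested at 20 µM; growth read once vehicle control cultures reached saturation at 30 °C; 1 = growth at the plate median or of vehicle wells; lower values mean less growth of the strain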
- REPORTED_CONDITIONS: S. cerevisiae deletion strains, growth OD, locus YGL167C, strain pmr1, active compounds read low
The whole screen tested about 5,500 compounds, of which about 2,000 (36%) were called active. Roughly 18% stayed inconclusive and do not appear here. Some of the results follow.

# molecule CCOc1ccc(C(=O)c2ccc(O)c(O)c2O)cc1 ; its normalized growth = 0.917 (inactive)

# molecule COc1ccc(C(=O)c2ccc(O)cc2)c(O)c1O ; its normalized growth = 0.952 (inactive)

# molecule COc1cc2cc3c4cc(OC)c(OC)cc4cc[n+]3c(C)c2cc1OC ; its normalized growth = 1.01 (inactive)

# molecule CN(C)CCc1c[nH]c2ccc(CS(=O)(=O)N3CCCC3)cc12 ; its normalized growth = 0.983 (inactive)

# molecule COc1ccc(C(=O)c2ccccc2)c(O)c1O ; its normalized growth = 0.955 (inactive)

# molecule COc1cc(NS(=O)(=O)c2ccc(N)cc2)ncn1 ; its normalized growth = 0.981 (inactive)

# molecule CNS(=O)(=O)Cc1ccc2[nH]cc(CCN(C)C)c2c1 ; its normalized growth = 1.03 (inactive)

# molecule C#CC1(O)CCC2C3CCC4=CC(=O)CCC4(C)C3CCC21C (centres undefined) ; its normalized growth = 0.976 (inactive)

# molecule CCOc1ccc(C(=O)c2cc(O)c(OC)c(OC)c2O)cc1 ; its normalized growth = 1 (inactive)

====

- EXPERIMENTAL_PROTOCOL: chemical genetic growth profiling, strain panel (AID 1159580);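 further: tested at 20 µM; growth read once vehicle control cultures reached saturation at 30 °C; 1 = growth at the plate median or of vehicle wells; lower values mean less growth of the strain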
- REPORTED_CONDITIONS: S. cerevisiae deletion strains, growth OD, locus YLL001W, strain dnm1, active compounds read low
The campaign covered roughly 5,500 compounds. About 2,000 (36%) were called active. About 18% were inconclusive and are not listed. Some of the results follow.
PARAMETER_MEASURED: normalized growth
Enter the number alone.

# molecule C=C(C)[C@H]1Cc2c(ccc3c2O[C@@H]2COc4cc(OC)c(OC)cc4[C@@H]2C3=O)O1 ; its normalized growth = 0.983

# molecule CNS(=O)(=O)Cc1ccc2[nH]cc(CCN(C)C)c2c1 ; its normalized growth = 1.02

# molecule COc1cc2c(cc1OC)[C@@H]1C(=O)c3ccc4c(c3O[C@@H]1CO2)CC(C(C)C)O4 (stereo not given in full) ; its normalized growth = 0.943

# molecule CN1CCN(CCCN2c3ccccc3Sc3ccc(C(F)(F)F)cc32)CC1 ; its normalized growth = 0.0784

# molecule CCOC([O-])=Nc1c[n+](N2CCOCC2)no1 ; its normalized growth = 0.988

# molecule CC(=O)O[C@H]1CC[C@]2(C)C3CC[C@@]4(C)C(CC5O[C@@]6(CCC(C)CO6)[C@@H](C)C54)C3CC[C@@H]2C1 (stereo not given in full) ; its normalized growth = 1.01

# molecule CCC1C(=O)OCC1Cc1cncn1C (stereo not given) ; its normalized growth = 1.02

# molecule CN(C)CCc1c[nH]c2ccc(CS(=O)(=O)N3CCCC3)cc12 ; its normalized growth = 0.971

# molecule CC1(C)C=Cc2cc3ccc(=O)oc3cc2O1 ; its normalized growth = 0.876

# molecule COc1cc2cc3c4cc(OC)c(OC)cc4cc[n+]3c(C)c2cc1OC ; its normalized growth = 1.01
